- PROTOCOL_SUMMARY: method code SF-HPLC, from DOI: 10.1021/ac9902291
I'd appreciate it if you could supply logP values for the items below.
Answers are plain numbers.

SMILES_INPUT: Cc1cccc2ccsc12
RESULT_TYPE: logP
ENDPOINT_VALUE: 3.85

Each of the following entries comes with a recorded value; kindly state logP for each.
1. c1ccc2cc3sccc3cc2c1
2. Cc1cccc2sccc12
3. O=S1(=O)C=Cc2ccccc21
4. c1ccc2c(c1)ccc1ccsc12

Response line:
1: 4.5; 2: 3.57; 3: 1.01; 4: 4.55

Give measured logP for every item shown.
1. c1ccc2c(c1)sc1ccccc12
2. c1cc2ccc3cccc4sc(c1)c2c34

Response line:
4.36
4.95
